This collection of values is drawn from PubChem BioAssay AID1529.

TEST_TARGET: Mitogen-activated protein kinase kinase kinase 3 (Homo sapiens) (UniProt Q99759)
Sequence (Q99759 whole entry, looked up): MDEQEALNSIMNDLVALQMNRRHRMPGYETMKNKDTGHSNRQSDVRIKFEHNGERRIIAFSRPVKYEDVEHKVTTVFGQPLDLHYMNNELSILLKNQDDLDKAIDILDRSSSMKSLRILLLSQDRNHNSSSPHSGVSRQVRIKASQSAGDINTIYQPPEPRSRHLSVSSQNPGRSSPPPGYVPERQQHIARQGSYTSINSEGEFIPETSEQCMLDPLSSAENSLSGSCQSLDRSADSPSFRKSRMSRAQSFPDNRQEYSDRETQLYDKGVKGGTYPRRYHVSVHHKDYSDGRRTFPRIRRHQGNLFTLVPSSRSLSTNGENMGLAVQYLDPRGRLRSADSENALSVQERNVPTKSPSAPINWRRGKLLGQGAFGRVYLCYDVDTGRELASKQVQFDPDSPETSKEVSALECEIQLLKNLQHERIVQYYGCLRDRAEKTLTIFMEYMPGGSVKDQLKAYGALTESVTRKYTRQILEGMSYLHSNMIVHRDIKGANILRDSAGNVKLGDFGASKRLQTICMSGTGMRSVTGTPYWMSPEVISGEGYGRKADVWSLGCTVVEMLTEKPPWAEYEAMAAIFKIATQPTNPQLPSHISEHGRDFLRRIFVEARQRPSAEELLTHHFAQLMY
ASSAY_REMARKS: modulators of MEKK3-MEK5 PB1 binding, primary screen, biochemical, wildtype MEKK3, multiplex bead flow cytometry, Alexa488-MEK5 (AID 1529);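 note: Alexa488 bead fluorescence after subtracting the streptavidin-only scavenger bead signal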
CONDITIONS_USED: bead-based flow cytometry, Alexa488-MEK5 binding to MEKK3; at 10 µM; actives lie on both sides; 0 = blocked by unlabeled MEK5, 100 = vehicle
In all, about 290,000 compounds went through this assay and about 4,200 (1.4%) were called active. Shown is part of a subset that was picked to be rich in actives.
# binding response (% of control) per record follows
VALUE_KIND: binding response (% of control)

• CC(NC(=O)c1cc2cc(Cl)ccc2oc1=N)c1ccccc1 (stereo unspecified) = 100% (inactive)
• O=C(O)c1ccc(NC(=O)c2ccc(COc3ccc(Cl)cc3)o2)cc1 = 103% (inactive)
• CCCOc1ccc(C(=O)NCCc2ccccc2)cc1 = 97% (inactive)
• COc1cccc(NC(=O)COc2cc(C)cc3oc(=O)cc(C)c23)c1 = 103% (inactive)
• O=C(O)CSc1nnc(-c2ccc3c(c2)OCO3)n1-c1ccccc1 = 103% (inactive)
• CC(C)c1ccc(C(=O)NCCCc2ccccc2)cc1 = 2% [inhibitor] (active)
• CC(C)(C)NC(=O)c1cc(NC(=O)c2ccco2)cc(NC(=O)c2ccco2)c1 = 101% (inactive)
• Cn1c(SCc2nc3ccccc3s2)nnc1-c1ccc2c(c1)OCO2 = 19% [inhibitor] (active)
• COc1ccc(N(CC(=O)NC(C)(C)C)C(=O)c2ccco2)cc1 = 98% (inactive)
• CC1(C(=O)O)CCC(C(=O)Nc2ccc(Cl)c(Cl)c2)C1(C)C (stereo unspecified) = 103% (inactive)
• Cn1c(SCC(=O)N2CCCC2)nnc1-c1ccc2c(c1)OCO2 = 100% (inactive)

* * *

TEST_TARGET: Mitogen-activated protein kinase kinase kinase 3 (Homo sapiens)
ASSAY_REMARKS: modulators of MEKK3-MEK5 PB1 binding, primary screen, biochemical, wildtype MEKK3, multiplex bead flow cytometry, Alexa488-MEK5 (AID 1529)
CONDITIONS_USED: bead-based flow cytometry, Alexa488-MEK5 binding to MEKK3; at 10 µM; actives lie on both sides; 0 = blocked by unlabeled MEK5, 100 = vehicle
Among all 290,000 compounds or so, about 4,200 (1.4%) were called active. This excerpt belongs to a sample that is enriched for actives.
# binding response (% of control) per record follows
VALUE_KIND: binding response (% of control)

* C#CCOCCOCCOCCNc1nc(N2CCN(C(=O)C([C@@H](C)CC)n3cc(C(N)COC(=O)C(F)(F)F)nn3)CC2)nc(N2CCN(C(=O)[C@H](Cc3ccc(O)cc3)n3cc(C(N)[C@H](C)CC)nn3)CC2)n1 (stereo not given in full) | 104% (inactive)
* Cc1ccc(Cn2c(C)c3cnn(CC(=O)NCc4ccccn4)c(=O)c3c2C)cc1 | 100% (inactive)
* CC(=O)Nc1cccc(OCC(=O)/C=C2\N(C)c3ccccc3C2(C)C)c1 | 62% [inhibitor] (active)
* CCOC(=O)/C(C#N)=C/c1ccc(OCC(=O)Nc2ccccc2)c(OC)c1 | 27% [inhibitor] (active)
* O=C(CCN1C(=O)[C@@H]2Cc3ccccc3CN2C1=O)NCCc1ccccc1 | 99% (inactive)
* CC(C)Nc1nnc(SCC(=O)/C=C2\N(C)c3ccccc3C2(C)C)s1 | 101% (inactive)
* Cc1ccc(CN(CC(=O)NC2CCCCC2)C(=O)c2csnn2)cc1 | 103% (inactive)
* CCCn1c(C)cc(/C=C(\C#N)C(=O)OCC(=O)Nc2cc(OC)c(OC)c(OC)c2)c1C | 101% (inactive)
* Cc1ccccc1CCN(CC(=O)NC1CCCCC1)C(=O)c1csnn1 | 142% (active)
* O=C(CN(C(=O)c1csnn1)c1ccc(Br)cc1)NC1CCCC1 | 101% (inactive)
* CCc1ccc(NC(=O)Cn2nnc(C(=O)NCc3ccc4c(c3)OCO4)c2N)cc1 | 100% (inactive)
* CN(C)c1ccc(NC(=O)CN2C3CCCC2CC(NC(=O)c2ccccc2)C3)cc1 (stereo not given) | 104% (inactive)
* Cc1cccc(NC(=O)CCN2CC(C)CC(C)C2)c1 (stereo not given) | 107% (inactive)
* COC(=O)c1ccc(N2CCOCC2)c(NC(=O)c2ccc(Br)o2)c1 | 101% (inactive)
* Cc1nc(-c2ccccc2)sc1C1(C)CC(c2cccnc2)=NO1 (stereo not given) | 104% (inactive)
* COc1cc(C2C3=C(CCCC3=O)OC3=C2C(=O)CCC3)ccc1OCC(=O)Nc1ccccc1 | 100% (inactive)
* O=C(c1cccc([N+](=O)[O-])c1)N1CCN(C(=O)c2ccco2)CC1 | 100% (inactive)
* Cc1noc(C)c1C(=O)OCC(=O)/C=C1\N(C)c2ccccc2C1(C)C | 100% (inactive)
* COc1ccccc1/C=C1\SC(=O)N(CCC(=O)N(C)C2CCS(=O)(=O)C2)C1=O (stereo not given) | 98% (inactive)
* O=C(Cc1c(F)cccc1Cl)N1CCN(C(=O)c2ccco2)CC1 | 103% (inactive)

* * *

TEST_TARGET: Mitogen-activated protein kinase kinase kinase 3 (Homo sapiens) (UniProt Q99759)
ASSAY_REMARKS: modulators of MEKK3-MEK5 PB1 binding, primary screen, biochemical, wildtype MEKK3, multiplex bead flow cytometry, Alexa488-MEK5 (AID 1529);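 note: Alexa488 bead fluorescence after subtracting the streptavidin-only scavenger bead signal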
CONDITIONS_USED: bead-based flow cytometry, Alexa488-MEK5 binding to MEKK3; at 10 µM; actives lie on both sides; 0 = blocked by unlabeled MEK5, 100 = vehicle
Out of some 290,000 compounds screened, about 4,200 (1.4%) were called active. This excerpt belongs to a sample that is enriched for actives.
# binding response (% of control) per record follows
VALUE_KIND: binding response (% of control)

* COc1cc2cc(C(=O)N/N=C/c3cccc(OC)c3OC)[nH]c2cc1OC | 94% (inactive)
* COC(=O)c1cccc(N(CC(=O)NCC2CCCO2)C(=O)CCC(=O)Nc2cc(C)on2)c1 (stereo unspecified) | 103% (inactive)
* CSCC[C@H](NC(=O)CCCn1nnc2ccccc2c1=O)C(=O)O | 137% (active)
* COc1cc(OC)c(C(=S)N2CCCC2)cc1OC | 104% (inactive)
* COc1ccccc1CNC(=O)C1CCN(C(=O)[C@@H]2Cc3ccccc3CN2)CC1 | 101% (inactive)
* CN(Cc1ccccc1)C(=O)c1ccc(COc2ccccc2)cc1 | 109% (inactive)
* COc1ccc(CC(=O)Nc2ccc(C(=O)NC(C)(C)C)cc2)cc1 | 97% (inactive)
* CCOc1ccc(C(c2c(C)[nH][nH]c2=O)c2c(C)[nH][nH]c2=O)cc1OCC | 152% (active)
* Nc1ccccc1Sc1ccc(C(F)(F)F)cc1[N+](=O)[O-] | 107% (inactive)
* Cn1ccnc1-c1nnn(-c2ccc(F)cc2)n1 | 95% (inactive)
* Cc1cccc(OCCC(=O)Nc2ccccc2C(N)=O)c1 | 104% (inactive)

* * *

TEST_TARGET: Mitogen-activated protein kinase kinase kinase 3 (Homo sapiens)
ASSAY_REMARKS: modulators of MEKK3-MEK5 PB1 binding, primary screen, biochemical, wildtype MEKK3, multiplex bead flow cytometry, Alexa488-MEK5 (AID 1529);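 note: Alexa488 bead fluorescence after subtracting the streptavidin-only scavenger bead signal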
CONDITIONS_USED: bead-based flow cytometry, Alexa488-MEK5 binding to MEKK3; at 10 µM; actives lie on both sides; 0 = blocked by unlabeled MEK5, 100 = vehicle
Among all 290,000 compounds or so, about 4,200 (1.4%) were called active.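 Rule for the calls: active = binding response more than 3 SD above or below the average of its plate-row segment, actives on both sides; inconclusive = wells at one plate position flagged as instrument error; inactive = the rest.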 Shown is part of a subset that was picked to be rich in actives.
Labels: T (active), F (inactive)

- CCc1ccc(NC(=O)Cn2nnc(C(=O)NCc3ccc(OC)cc3)c2N)cc1: F
- COc1ccc(CNC(=O)c2nnn(CC(=O)Nc3cc(C)cc(C)c3)c2N)cc1: F
- Cc1ccc(-c2nnc(CN3CCN(C)CC3)o2)cc1: F
- COc1ccc2c(c1)CCNC2Cc1ccc(OC)c(O)c1 (stereo unspecified): F
- O=C(Nc1ccc(S(=O)(=O)N2CCCCCC2)cc1)c1c(F)cccc1F: F
- COC(=O)c1ccccc1NC(=O)C1(S(=O)(=O)c2ccc(Cl)cc2)CC1: F
- O=C(Nc1ccn(Cc2ccccc2)n1)c1n[nH]c([N+](=O)[O-])c1Cl: F
- c1ccc(-c2cnc(CN3CCN(c4ccccc4)CC3)o2)cc1: F
- CCC(CC)COC(=O)C1=C(C)NC(=O)NC1c1ccc([N+](=O)[O-])cc1 (stereo unspecified): F
- COc1ccc(NC(=O)Cn2nnc(C(=O)NCCc3ccc(OC)c(OC)c3)c2N)cc1: T
- COc1ccc(N2CCN(Cc3nnc(-c4ccccc4)o3)CC2)cc1: T

* * *

TEST_TARGET: Mitogen-activated protein kinase kinase kinase 3 (Homo sapiens)
ASSAY_REMARKS: modulators of MEKK3-MEK5 PB1 binding, primary screen, biochemical, wildtype MEKK3, multiplex bead flow cytometry, Alexa488-MEK5 (AID 1529);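 note: Alexa488 bead fluorescence after subtracting the streptavidin-only scavenger bead signal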
CONDITIONS_USED: bead-based flow cytometry, Alexa488-MEK5 binding to MEKK3; at 10 µM; actives lie on both sides; 0 = blocked by unlabeled MEK5, 100 = vehicle
Out of some 290,000 compounds screened, about 4,200 (1.4%) were called active.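 The calls were made as follows: active = binding response more than 3 SD above or below the average of its plate-row segment, actives on both sides; inconclusive = wells at one plate position flagged as instrument error; inactive = the rest.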 This excerpt belongs to a sample that is enriched for actives.
Labels: class 1 = active, class 0 = inactive

* O=C(Nc1ccccc1)/C(=C/c1ccc([N+](=O)[O-])cc1)NC(=O)c1ccccc1 | class 0
* Cc1cc(=O)[nH]c(SCc2cc(Cl)ccc2OC(F)F)n1 | class 0
* O=C(OCc1cc2ccccc2[nH]c1=O)c1cccnc1 | class 0
* CNC(=O)/C(=C\C=C\c1ccccc1)NC(=O)c1ccc([N+](=O)[O-])cc1 | class 1
* CC(C)c1cc(C(N)=O)c(NC(=O)c2cccc(COc3ccc(Br)cc3)c2)s1 | class 0
